- experiment: Retention time of the compound by RP-HPLC analysis
- Assay type: physicochemical
Starred links: 1 amine or outer side, 2 acyl side, 3 side chain; linkers in the order of their positions; H or OH if unused. Non-standard residues stand in square brackets, D forms with d. Residues, ends and D or L forms follow the SMILES beside them. ξ: configuration not given here. X3 = CCCCCCCCCCCCCCCCCCN([C@@H](Cc1c[nH]cn1)C(=O)[*:2])[*:1]; X5 = CCCCCCCCCCCCCCCCCCN([C@@H](CCCNC(=N)N)C(=O)[*:2])[*:1]; X1 = CCCCCCCCCCCCCCCCN([C@@H](CCCCN)C(=O)[*:2])[*:1]; X2 = CCCCCCCCCCCCCCCCN([C@@H](C)C(=O)[*:2])[*:1]; ξDap = NCC(N)C(=O)O
measured-attribute: Retention_time

INSERT INTO measurements (compound, measured_attribute, endpoint_value) VALUES
  ('CCCCCCCCCCCCCCCCN[C@@H](CCCCN)C(=O)N[C@@H](Cc1c[nH]cn1)C(=O)N[C@@H](CCCCN)C(=O)N[C@@H](Cc1c[nH]cn1)C(=O)N[C@@H](CCCCN)C(=O)O (H-[X1]HKHK-OH)', 'Retention_time', '13.4 min'),
  ('CCCCCCCCCCCCCCCCN[C@@H](CCCCN)C(=O)N[C@@H](CCCNC(=N)N)C(=O)N[C@@H](CCCCN)C(=O)N[C@@H](CCCNC(=N)N)C(=O)O', 'Retention_time', '13.8 min'),
  ('CCCCCCCCCCCCCCCCCCN[C@@H](Cc1c[nH]cn1)C(=O)N[C@@H](Cc1c[nH]cn1)C(=O)NC(CN)C(=O)NC(CN)C(=O)NC(CN)C(=O)O (stereo partly specified) (H-[X3]H[ξDap][ξDap][ξDap]-OH)', 'Retention_time', '14.4 min'),
  ('CCCCCCCCCCCCCCCCCCN[C@@H](CCCNC(=N)N)C(=O)N[C@@H](CCCNC(=N)N)C(=O)NC(CN)C(=O)NC(CN)C(=O)NC(CN)C(=O)O (stereo partly specified) (H-[X5]R[ξDap][ξDap][ξDap]-OH)', 'Retention_time', '14.6 min'),
  ('CCCCCCCCCCCCCCCCN[C@@H](C)C(=O)N[C@@H](C)C(=O)N[C@@H](C)C(=O)N[C@@H](CCCCN)C(=O)N[C@@H](CCCNC(=N)N)C(=O)N[C@@H](CCCCN)C(=O)N[C@@H](CCCNC(=N)N)C(=O)O (H-[X2]AAKRKR-OH)', 'Retention_time', '14.3 min'),
  ('CCCCCCCCCCCCCCCCCCN[C@@H](C)C(=O)N[C@@H](C)C(=O)NC(CN)C(=O)NC(CN)C(=O)NC(CN)C(=O)O (stereo partly specified)', 'Retention_time', '15.9 min');
